Values compiled from ChEMBL document CHEMBL4196021.

Tested on: HeLa
experiment.summary: Cytotoxicity against human HeLa cells assessed as reduction in cell viability after 72 hrs by MTT assay
Format: functional, cell-based

smiles.data: CN(C)CCCCn1c2ccc(-c3nc4ccc(N5CCN(CCO)CC5)cc4[nH]3)cc2c2cc(-c3nc4ccc(N5CCN(CCO)CC5)cc4[nH]3)ccc21
assay.target: HeLa
IC50 (µM): 8.29

====

System: Quadruplex DNA
experiment.summary: Binding affinity to human c-Kit2 G-quadruplex DNA assessed as change in melting temperature in presence of KCl by CD spectroscopic method; note: test concentration or dose not given here
Format: nucleic-acid assay
ΔTm vs 20 °C: less than gives Criterion met; not less than gives Criterion not met.

smiles.data: C[N+]1(CCCCN2CCOCC2)CCN(CCCCn2c3ccc(-c4nc5ccc(N6CCOCC6)cc5[nH]4)cc3c3cc(-c4nc5ccc(N6CCOCC6)cc5[nH]4)ccc32)CC1
label.value: Criterion met

smiles.data: C[n+]1ccc(-c2c3nc(c(-c4cc[n+](C)cc4)c4ccc([nH]4)c(-c4cc[n+](C)cc4)c4ccc([nH]4)c(-c4cc[n+](C)cc4)c4nc2C=C4)C=C3)cc1
label.value: Criterion met

smiles.data: CCn1c2ccc(-c3nc4ccc(N5CCN(CCO)CC5)cc4[nH]3)cc2c2cc(-c3nc4ccc(N5CCN(CCO)CC5)cc4[nH]3)ccc21
label.value: Criterion met

smiles.data: CN1CCN(CCCCn2c3ccc(-c4nc5cc(N6CCOCC6)ccc5[nH]4)cc3c3cc(-c4nc5cc(N6CCOCC6)ccc5[nH]4)ccc32)CC1
label.value: Criterion met

smiles.data: CN(C)CCCCn1c2ccc(-c3nc4ccc(N5CCN(CCO)CC5)cc4[nH]3)cc2c2cc(-c3nc4ccc(N5CCN(CCO)CC5)cc4[nH]3)ccc21
label.value: Criterion not met

smiles.data: CN1CCN(CCCCn2c3ccc(-c4nc5cc(N6CCN(CCO)CC6)ccc5[nH]4)cc3c3cc(-c4nc5cc(N6CCN(CCO)CC6)ccc5[nH]4)ccc32)CC1
label.value: Criterion not met

====

System: Quadruplex DNA
experiment.summary: Induction of conformational changes in human Bcl2 G-quadruplex DNA assessed as inversion from potassium ion stabilized hybrid type mixed parallel/antiparallel G-quadruplex to stable telomere parallel-stranded G-quadruplex after 5 mins in presence of KCl by CD spectroscopic method
Format: nucleic-acid assay
Calls of active or inactive are those of the source. The calls are words filed in the database; no cut-off is given here.

smiles.data: C[N+]1(CCCCN2CCOCC2)CCN(CCCCn2c3ccc(-c4nc5ccc(N6CCOCC6)cc5[nH]4)cc3c3cc(-c4nc5ccc(N6CCOCC6)cc5[nH]4)ccc32)CC1
Activity: inactive
--
smiles.data: CN1CCN(CCCCn2c3ccc(-c4nc5cc(N6CCN(CCO)CC6)ccc5[nH]4)cc3c3cc(-c4nc5cc(N6CCN(CCO)CC6)ccc5[nH]4)ccc32)CC1
Activity: Active
--
smiles.data: CCn1c2ccc(-c3nc4ccc(N5CCN(CCO)CC5)cc4[nH]3)cc2c2cc(-c3nc4ccc(N5CCN(CCO)CC5)cc4[nH]3)ccc21
Activity: Active
--
smiles.data: CN1CCN(CCCCn2c3ccc(-c4nc5cc(N6CCOCC6)ccc5[nH]4)cc3c3cc(-c4nc5cc(N6CCOCC6)ccc5[nH]4)ccc32)CC1
Activity: inactive
--
smiles.data: CN(C)CCCCn1c2ccc(-c3nc4ccc(N5CCN(CCO)CC5)cc4[nH]3)cc2c2cc(-c3nc4ccc(N5CCN(CCO)CC5)cc4[nH]3)ccc21
Activity: Active
